Experiment: NCI Yeast Anticancer Drug Screen. Data for the rad50 strain (AID 155);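 note: 0% = growth of vehicle-only cultures of the same strain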
Details: S. cerevisiae rad50 strain growth inhibition; at 50.0 µM; stronger effect = higher value
The panel holds about 79,000 compounds, 15% with a hit somewhere; the sample as a whole holds those more often.
Binary classification by growth inhibition, with 20% as an inclusive lower bound for criterion met; all other cases are criterion not met.

Could you please find out whether CC(=O)OCC1C(OC(C)=O)C(OC(C)=O)C(n2cnc3c(N)ncnc32)N1C(C)=O (stereo unspecified) has growth inhibition that meets 20% or exceeds it?
criterion not met

Could you please find out whether `O=C(O)c1ccccc1Nc1nc2ccccc2o1` has growth inhibition that meets 20% or exceeds it?
criterion not met

Could you please find out whether `Cc1ccc(S(=O)(=O)/C(C#N)=C/n2c(=S)[nH]c3ccc([N+](=O)[O-])cc32)cc1` has growth inhibition that meets 20% or exceeds it?
criterion not met

Could you please find out whether CC1C(C)(C)P(=O)(OCCOP2(=O)C(C)(C)C(C)C2(C)C)C1(C)C (stereo unspecified) has growth inhibition that meets 20% or exceeds it?
criterion met

Could you please find out whether `O=c1[nH]c(Nc2ccc(Cl)c(C(F)(F)F)c2)nc2nc[nH]c12` has growth inhibition that meets 20% or exceeds it?
criterion not met

Could you please find out whether `CC(=O)Oc1ccccc1C(OC(C)=O)OC(C)=O` has growth inhibition that meets 20% or exceeds it?
criterion met

Could you please find out whether `O=C(NO)c1ccc(O)c(O)c1` has growth inhibition that meets 20% or exceeds it?
criterion not met

Could you please find out whether `O=C1C=CC(=O)N1CCCCN1C(=O)C=CC1=O` has growth inhibition that meets 20% or exceeds it?
criterion not met

Could you please find out whether `Cc1ccc(NC(=O)Oc2ccc(F)cc2)cc1NC(=O)Oc1ccc(F)cc1` has growth inhibition that meets 20% or exceeds it?
criterion met

Could you please find out whether `CC(C)c1nc(N)nc(N)n1` has growth inhibition that meets 20% or exceeds it?
criterion not met

Could you please find out whether `O=C(O)c1cc(C(=O)O)cc(S(=O)(=O)NCCO)c1` has growth inhibition that meets 20% or exceeds it?
criterion not met

Could you please find out whether CC(C)C(C(=O)O)N1C(=O)c2ccccc2C1=O (stereo unspecified) has growth inhibition that meets 20% or exceeds it?
criterion not met

Could you please find out whether `C=C[C@@]1(C)CC(=O)[C@]2(O)[C@@]3(C)[C@@H](O)CCC(C)(C)[C@@H]3[C@H](O)[C@@H](OC(C)=O)[C@@]2(C)O1` has growth inhibition that meets 20% or exceeds it?
criterion not met

Could you please find out whether CCCCN(CCCC)CCC(O)c1ccc(OC)c2ccccc12 (stereo unspecified) has growth inhibition that meets 20% or exceeds it?
criterion met

Could you please find out whether `C#CCCC#C` has growth inhibition that meets 20% or exceeds it?
criterion not met

* * *

Test: NCI Yeast Anticancer Drug Screen. Data for the sgs1 mgt1 strain (AID 161);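 note: 0% = growth of cultures given vehicle only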
Conditions: S. cerevisiae sgs1 mgt1 strain, at 50.0 µM, stronger effect = higher value
About 79,000 compounds went through this panel and 15% of them were active in at least one assay; those are over-represented in the sample as a whole.
A collection of molecules and their measured growth inhibition
Hi! Could you send only the number? It should be in %, unit omitted.

molecule | growth inhibition (%)
CN(C)c1ncnc2c1ncn2C1OC(CO)C(O)C1O (stereo not drawn) | 4

Complete the entry with growth inhibition for COC1OC(COS(=O)(=O)c2ccc(C)cc2)C(OS(=O)(=O)c2ccc(C)cc2)C1OCc1ccccc1 (stereo not drawn)
3.9

Complete the entry with growth inhibition for C=CCOC(=O)C(C)OC(=O)OCC (stereo not drawn)
6.85

Complete the entry with growth inhibition for `CCOc1ccccc1C(=O)Nc1cc(Cl)ccc1Cl`
-7.45

Complete the entry with growth inhibition for `C(=C\c1cccc2ccccc12)/c1ccc(-c2ccccc2)cc1`
-0.75

Complete the entry with growth inhibition for `CCOC(=O)Cn1c(=O)[nH]c(=O)c2[nH]cnc21`
-1.3

Complete the entry with growth inhibition for O=C(O)CC(C(=O)O)C1c2ccccc2-c2ccccc21 (stereo not drawn)
-40.4

Complete the entry with growth inhibition for CC1CCC2(OC1)OC1CC3C4CCC5CC(O)CCC5(C)C4C(=O)C(O)C3(C)C1C2C (stereo not drawn)
49

Hello, the source for this data is PubChem BioAssay (NCI), in case you need it.
